- protocol-summary: yeast display, Sf9 membrane polyspecificity reagent, FACS + sequencing; frameworks hold sequencing errors

chain-sequence	polyreactivity (PSR sort gate)
QVQLVESGGGLVQAGGSLRLSSAASGSTFRWYAMGWSRQEPGKEREFVAAITWSGGRTYYADSVKGRFTISRDNAKNTVFLQLNSLKPEDTAVYYCNAYDYGYSFNYWGQGTQVTLSS	high polyreactivity
QVQLVESGGGLVQAGGSLRLSCAASGSIFPDYAMGRYRQAPGKERELVAGISSNSGSTYYADSVKGRFTISRDNAKNTVYLQMNSLKPEDTAVYYCAKDSFWRDTGYTDGDYWGQGTKVTVSS	low polyreactivity
QVQLVESGGGLVQAGGSLRLSCAASGSTFVYAMVWYRPAPGKERELVAAITTGDSTYYADSVKGRFTISRDNAKNTVYLQMNSLKPEDTAVYYCAAQWYTRDGEYGYWGQGTQVTVSS	low polyreactivity
QVQLVESGGGLVQAGGSLRLSCAASGRIFSRYAMGWYRQAPGKERELVAAITQSGTSTYYADSVKGRFTISRDNAKNTVYLQMNSLKPEDTAVYYCAAAKHSWRPSYYWGGYWGQGTQVTVSS	low polyreactivity
QVQLVESGGGLVQAGGSLRLSCAASGRTFFTYAMGWYRQAPGKERELVASITRSGVSTYYADSVKGRFTISRDNAKNTVYFQMNSLKPEDTAVYYCNTRYPYYWPIYGYWGQGTQVTVSS	high polyreactivity
QVRLVESGGGLVQAGGSLRLSCAASGSIFYFNAMGWYRQAPGKERELVATIRYRGGRTYADSVKGRFTISRDNAKNTVYLQMNSLKPEDTAVYFCNTYARYAYLTGRMDYWGQGTQVTVSS	high polyreactivity
